Overview of recorded Ki for various compounds
target: TYK2 kinase domain (Homo sapiens)
Construct: made in house; host or cells: SF9 insect cells (recombinant baculovirus)
Sequence (P29597 873-1187): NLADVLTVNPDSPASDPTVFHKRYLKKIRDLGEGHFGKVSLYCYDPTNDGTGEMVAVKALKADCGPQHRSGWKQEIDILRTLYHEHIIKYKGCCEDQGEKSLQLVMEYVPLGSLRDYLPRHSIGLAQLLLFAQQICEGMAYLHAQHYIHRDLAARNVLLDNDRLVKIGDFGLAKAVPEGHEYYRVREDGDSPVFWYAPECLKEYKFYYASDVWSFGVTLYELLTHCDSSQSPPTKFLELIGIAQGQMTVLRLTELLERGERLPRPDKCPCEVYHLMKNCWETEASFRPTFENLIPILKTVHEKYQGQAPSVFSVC
test: TYK2 inhibition assay (Caliper LabChip, isolated kinase domain)
Assay type: biochemical
measurement conditions: isolated TYK2 kinase domain, 25 uM ATP; values given as 'about'; read-out: Ki values for TYK2 inhibition

CCc1cc(Nc2cc(NC(=O)c3c(Cl)cccc3Cl)ccn2)nc(N2CCNCC2)n1: ~1.8 nM
O=C(Nc1ccnc(NC2CC2)n1)c1c(Cl)cccc1Cl: ~990 nM
Cc1cc(Nc2cc(NC(=O)c3c(Cl)cccc3Cl)ccn2)nc(N)n1: ~1.5 nM

Q. Requested read-out: Ki. Entry: Cc1cc(Nc2cc(NC(=O)c3c(Cl)cc(Cl)cc3Cl)ccn2)nc(N2CCOCC2)n1
A. ~3.5 nM

Q. Requested read-out: Ki. Entry: N#Cc1cc(Cl)c(C(=O)Nc2ccnc(N)c2)c(Cl)c1
A. ~93 nM

src = patent US8486950B2
